Test system: MGO-mediated BSA glycation
Test: In vitro antiglycation activity, MGO-BSA glycation assay (fluorescence)
Assay type: biochemical, bovine
Details: compounds at 1 mM; BSA 10 mg/mL, MGO 0.1 M, 24 h, 37° C.
For each of the compounds below, state its % inhibition of MGO-BSA glycation.
Numbers only, in %.

Study these solved cases before continuing.
{"columns": ["compound", "% inhibition of MGO-BSA glycation, %"],
 "data": [
  ["C[C@@H]1O[C@@H](OC[C@H]2O[C@@H](Oc3c(-c4ccc(O)c(O)c4)oc4cc(O)cc(O)c4c3=O)[C@H](O)[C@@H](O)[C@@H]2O)[C@H](O)[C@H](O)[C@H]1O [Rutin, reference compound]", 67],
  ["O=C(Cn1cc(Cn2c3ccccc3c3ccccc32)nn1)c1ccc([N+](=O)[O-])cc1 [Compound 12]", 83.7],
  ["c1ccc2c(c1)c1ccccc1n2Cc1cn(Cc2ccc(Cn3cc(Cn4c5ccccc5c5ccccc54)nn3)cc2)nn1 [Compound 15]", 71],
  ["Cc1ncc([N+](=O)[O-])n1CCn1cc(Cn2c3ccccc3c3ccccc32)nn1 [Compound 13]", 77.8]
]}

Your task in this section: give % inhibition of MGO-BSA glycation for each listed record.
1. Cc1cccc(C(=O)Cn2cc(Cn3c4ccccc4c4ccccc43)nn2)c1 [Compound 8]
2. c1ccc2c(c1)[nH]c1ccccc12 [carbazole]

79
36.7

Query: % inhibition of MGO-BSA glycation; subject: O=C(Cn1cc(Cn2c3ccccc3c3ccccc32)nn1)c1ccccc1 [Compound 2]
58
